method.notes: In vivo biodistribution in mice
Parameters: species or system normal CD-1 male mice
run.parameters: iv, 30 min (0.5 hr) post injection
Please respond with reported Biodistribution: Brain for every item in the list.

Ask: Which Biodistribution: Brain reading was recorded for the molecule O=C([O-])CN(CCN(CC(=O)[O-])Cc1cc(CCC(=O)NC(P(=O)(O)O)P(=O)(O)O)ccc1[O-])Cc1cc(CCC(=O)NCCCNC(=O)CCc2ccc(O)c(CN(CCN(CC(=O)O)Cc3cc(CCC(=O)NC(P(=O)(O)O)P(=O)(O)O)ccc3O)CC(=O)O)c2)ccc1[O-].[68Ga+3] [[^68Ga]3] ?
Result: 0.06 ± 0.01 % dose/g

Ask: Next record, please: C[C@H](NC(=O)CCc1ccc([O-])c(CN(CCN(CC(=O)[O-])Cc2cc(CCC(=O)NC(P(=O)(O)O)P(=O)(O)O)ccc2[O-])CC(=O)[O-])c1)C(=O)O.[68Ga+3] [[^68Ga]1d]
Result: 0.03 ± 0.00 % dose/g

Ask: Next record, please: O=C([O-])CN(CCN(CC(=O)[O-])Cc1cc(CCC(=O)NC(P(=O)(O)O)P(=O)(O)O)ccc1[O-])Cc1cc(CCC(=O)NCCCCCC(=O)NCCCC[C@H](NC(=O)N[C@@H](CCC(=O)O)C(=O)O)C(=O)O)ccc1[O-].[68Ga+3] [[^68Ga]1g]
Result: 0.03 ± 0.00 % dose/g

Ask: Next record, please: O=C(O)CN1CCN(CC(=O)O)CCN(CC(=O)NC(P(=O)(O)O)P(=O)(O)O)CCN(CC(=O)O)CC1.[68Ga] [[^68Ga]BPAMD, reference compound]
Result: 0.06 ± 0.02 % dose/g

====

method.notes: In vivo biodistribution in mice
Set-up: species or system normal CD-1 male mice
run.parameters: iv, 60 min (1 hr) post injection
Values of Biodistribution: Muscle strictly less than 0.2 % dose/g map to Condition met, and values of at least 0.2 % dose/g map to Condition not met.

Ask: Answer whether the compound O=C([O-])CN(CCN(CC(=O)[O-])Cc1cc(CCC(=O)NC(P(=O)(O)O)P(=O)(O)O)ccc1[O-])Cc1cc(CCC(=O)NC(P(=O)(O)O)P(=O)(O)O)ccc1[O-].[68Ga+3] [[^68Ga]2] has Biodistribution: Muscle strictly less than 0.2 % dose/g
Result: Condition not met

Ask: Next record, please: O=C([O-])CN(CCN(CC(=O)[O-])Cc1cc(CCC(=O)NC(P(=O)(O)O)P(=O)(O)O)ccc1[O-])Cc1cc(CCC(=O)NCCCCCC(=O)NCCCC[C@H](NC(=O)N[C@@H](CCC(=O)O)C(=O)O)C(=O)O)ccc1[O-].[68Ga+3] [[^68Ga]1g]
Result: Condition not met

Ask: Next record, please: C[C@H](NC(=O)CCc1ccc([O-])c(CN(CCN(CC(=O)[O-])Cc2cc(CCC(=O)NC(P(=O)(O)O)P(=O)(O)O)ccc2[O-])CC(=O)[O-])c1)C(=O)O.[68Ga+3] [[^68Ga]1d]
Result: Condition met

Ask: Next record, please: O=C([O-])CN(CCN(CC(=O)[O-])Cc1cc(CCC(=O)NC(P(=O)(O)O)P(=O)(O)O)ccc1[O-])Cc1cc(CCC(=O)NCCCNC(=O)CCc2ccc(O)c(CN(CCN(CC(=O)O)Cc3cc(CCC(=O)NC(P(=O)(O)O)P(=O)(O)O)ccc3O)CC(=O)O)c2)ccc1[O-].[68Ga+3] [[^68Ga]3]
Result: Condition not met

Ask: Next record, please: O=C([O-])CN(CCN(CC(=O)[O-])Cc1cc(CCC(=O)NC(P(=O)(O)O)P(=O)(O)O)ccc1[O-])Cc1cc(CCC(=O)O)ccc1[O-].[68Ga+3] [[^68Ga]1a]
Result: Condition met
